Catalogue of MIC values
- Test system: Micrococcus luteus
- PROCEDURE_SUMMARY: Antibacterial activity against Micrococcus luteus ATCC 9341 after 20 hrs by MTT assay
- Format: functional
- TEST_SETTINGS: ATCC 9341, 20 h
MEASURED_ATTRIBUTE: MIC (µg/mL)

MOLECULE	LT_GT_EQ	OBSERVED_MEASUREMENT
O=C(/C=C/c1ccc(O)cc1)OC[C@H]1O[C@@H](Oc2c(-c3ccc(O)cc3)oc3cc(O)cc(O)c3c2=O)[C@H](O)[C@@H](OC(=O)/C=C/c2ccc(O)cc2)[C@@H]1O	>	256
COc1cc(C(O)C(CO)Oc2ccc(/C=C/C(=O)OC[C@H]3O[C@@H](Oc4c(-c5ccc(O)cc5)oc5cc(O)cc(O)c5c4=O)[C@H](O)[C@@H](OC(=O)/C=C/c4ccc(O)cc4)[C@@H]3O)cc2OC)ccc1O (stereo not given in full) [STENOPALUSTROSIDE E]	>	256
O=C(/C=C/c1ccc(O)cc1)O[C@@H]1[C@@H](O)[C@H](Oc2c(-c3ccc(O)cc3)oc3cc(O)cc(O)c3c2=O)O[C@H](CO)[C@H]1O	>	256
COc1cc(/C=C/C(=O)OC[C@H]2O[C@@H](Oc3c(-c4ccc(O)cc4)oc4cc(O)cc(O)c4c3=O)[C@H](O)[C@@H](OC(=O)/C=C\c3ccc(O)cc3)[C@@H]2O)ccc1O [STENOPALUSTROSIDE B]	=	16
O=C(/C=C\c1ccc(O)cc1)OC[C@H]1O[C@@H](Oc2c(-c3ccc(O)cc3)oc3cc(O)cc(O)c3c2=O)[C@H](O)[C@@H](OC(=O)/C=C\c2ccc(O)cc2)[C@@H]1O [STENOPALUSTROSIDE A]	=	8

====

- Tested on: Micrococcus luteus
- PROCEDURE_SUMMARY: Antibacterial activity against Micrococcus luteus ATCC 9341 after 20 hrs by MTT assay
- Format: functional
- TEST_SETTINGS: ATCC 9341, 20 h
MEASURED_ATTRIBUTE: MIC

COMPOUND	MEASURED_ON	OBSERVED_MEASUREMENT
O=C(/C=C/c1ccc(O)cc1)OC[C@H]1O[C@@H](Oc2c(-c3ccc(O)cc3)oc3cc(O)cc(O)c3c2=O)[C@H](O)[C@@H](O)[C@@H]1O [TILIROSIDE]	Micrococcus luteus	> 256 µg/mL
COc1cc(/C=C/C(=O)OC[C@H]2O[C@@H](Oc3c(-c4ccc(O)cc4)oc4cc(O)cc(O)c4c3=O)[C@H](O)[C@@H](OC(=O)/C=C/c3ccc(O)cc3)[C@@H]2O)ccc1O	Micrococcus luteus	> 256 µg/mL
O=C(N[C@H](CO)[C@H](O)c1ccc([N+](=O)[O-])cc1)C(Cl)Cl	Micrococcus luteus	2 µg/mL

====

- System: Bacillus cereus
- PROCEDURE_SUMMARY: Antibacterial activity against Bacillus cereus ATCC 10702 after 20 hrs by MTT assay
- Assay type: functional
- TEST_SETTINGS: ATCC 10702, 20 h
# key: entry, value: MIC

COMPOUND	MIC
COc1cc(/C=C/C(=O)OC[C@H]2O[C@@H](Oc3c(-c4ccc(O)cc4)oc4cc(O)cc(O)c4c3=O)[C@H](O)[C@@H](OC(=O)/C=C\c3ccc(O)cc3)[C@@H]2O)ccc1O [STENOPALUSTROSIDE B]	8 µg/mL
O=C(/C=C/c1ccc(O)cc1)OC[C@H]1O[C@@H](Oc2c(-c3ccc(O)cc3)oc3cc(O)cc(O)c3c2=O)[C@H](O)[C@@H](OC(=O)/C=C/c2ccc(O)cc2)[C@@H]1O	> 256 µg/mL
O=C(/C=C\c1ccc(O)cc1)OC[C@H]1O[C@@H](Oc2c(-c3ccc(O)cc3)oc3cc(O)cc(O)c3c2=O)[C@H](O)[C@@H](OC(=O)/C=C\c2ccc(O)cc2)[C@@H]1O [STENOPALUSTROSIDE A]	4 µg/mL
O=C(/C=C/c1ccc(O)cc1)OC[C@H]1O[C@@H](Oc2c(-c3ccc(O)cc3)oc3cc(O)cc(O)c3c2=O)[C@H](O)[C@@H](O)[C@@H]1O [TILIROSIDE]	> 256 µg/mL
O=C(N[C@H](CO)[C@H](O)c1ccc([N+](=O)[O-])cc1)C(Cl)Cl	2 µg/mL

====

- Test system: Bacillus cereus
- PROCEDURE_SUMMARY: Antibacterial activity against Bacillus cereus ATCC 10702 after 20 hrs by MTT assay
- Assay type: functional
- TEST_SETTINGS: ATCC 10702, 20 h
MEASURED_ATTRIBUTE: MIC

MOLECULE	OBSERVED_MEASUREMENT
COc1cc(/C=C/C(=O)OC[C@H]2O[C@@H](Oc3c(-c4ccc(O)cc4)oc4cc(O)cc(O)c4c3=O)[C@H](O)[C@@H](OC(=O)/C=C/c3ccc(O)cc3)[C@@H]2O)ccc1O	> 256 µg/mL
O=C(/C=C/c1ccc(O)cc1)O[C@@H]1[C@@H](O)[C@H](Oc2c(-c3ccc(O)cc3)oc3cc(O)cc(O)c3c2=O)O[C@H](CO)[C@H]1O	> 256 µg/mL
COc1cc(C(O)C(CO)Oc2ccc(/C=C/C(=O)OC[C@H]3O[C@@H](Oc4c(-c5ccc(O)cc5)oc5cc(O)cc(O)c5c4=O)[C@H](O)[C@@H](OC(=O)/C=C/c4ccc(O)cc4)[C@@H]3O)cc2OC)ccc1O (stereo partly drawn) [STENOPALUSTROSIDE E]	> 256 µg/mL

Cited source: ChEMBL document CHEMBL1157987
